- target.under.test: JAK2 (recombinant purified GST-tagged catalytic domain) (Homo sapiens (Human));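 also: biochemical JAK kinase assay with HTRF detection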
- Sequence (O60674 849-1124): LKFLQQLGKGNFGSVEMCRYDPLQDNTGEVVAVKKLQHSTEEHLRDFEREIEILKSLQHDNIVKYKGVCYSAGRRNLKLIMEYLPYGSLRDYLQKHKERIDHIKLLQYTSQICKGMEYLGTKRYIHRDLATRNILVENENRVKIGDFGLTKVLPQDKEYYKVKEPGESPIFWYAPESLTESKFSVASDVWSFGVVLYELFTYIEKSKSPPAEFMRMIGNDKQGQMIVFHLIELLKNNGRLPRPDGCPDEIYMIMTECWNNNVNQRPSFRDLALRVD
- experiment.description: biochemical
measurement.label: pIC50
Give bare numbers, as −log10 of the molar value.

Count: 6. Required value per item: pIC50.
1. N#C[C@H]1C[C@H](N[C@@H](C2CC2)C(F)(F)F)CC[C@@H]1n1cc(C(N)=O)c(Nc2ccc(C(F)(F)F)cc2)n1 (single isomer, unassigned) [Example 28-195]
2. CC(C)(C)NC(=O)[C@@H]1CC[C@@H](n2cc(C(N)=O)c(Nc3ccc(Cl)cc3)n2)[C@H](C#N)C1 (single isomer, unassigned) [Example 35-35]
3. N#C[C@H]1C[C@H](N2CCC2)CC[C@@H]1n1cc(C(N)=O)c(Nc2ccc(C(F)F)nc2)n1 (single isomer, unassigned) [Example 28-50]
4. N#C[C@H]1C[C@H](N[C@H](C2CC2)C(F)(F)F)CC[C@@H]1n1cc(C(N)=O)c(Nc2ccc(C(F)(F)F)cc2)n1 (single isomer, unassigned) [Example 28-193]
5. N#C[C@H]1C[C@H](O)CC[C@@H]1n1cc(C(N)=O)c(Nc2ccc(C(F)(F)F)cc2)n1 (single isomer, unassigned) [Example 25-24]
6. N#C[C@H]1C[C@H](OC(=O)Nc2ccccc2)CCC1n1cc(C(N)=O)c(Nc2ccc(F)cc2)n1 (mixture of isomers) [Example 34-3]

Reply:
6.43
6.37
7.33
6.00
8.10
7.89

Count: 2. Required value per item: pIC50.
1. N#C[C@H]1C[C@H](N2CCC2)CC[C@@H]1n1cc(C(N)=O)c(Nc2ccc(Cl)c(F)c2)n1 (single isomer, unassigned) [Example 28-37]
2. N#C[C@H]1C[C@@H](N2CCC2)CC[C@@H]1n1cc(C(N)=O)c(Nc2ccc([C@@H](O)C(F)(F)F)cc2)n1 (single isomer, unassigned) [Example 28-87]

Reply:
1. 6.92
2. 7.89

Count: 3. Required value per item: pIC50.
1. N#C[C@@H]1C[C@H](OCC2CC2)CC[C@H]1n1cc(C(N)=O)c(Nc2ccc([C@H](O)C(F)(F)F)cc2)n1 (single isomer, unassigned) [Example 26-6]
2. N#C[C@H]1C[C@@H](N2C[C@@H]3[C@@H](CO)[C@@H]3C2)CC[C@@H]1n1cc(C(N)=O)c(Nc2ccc(C(F)(F)F)cc2)n1 (single isomer, unassigned) [Example 28-34]
3. CN(CC1CC1)[C@@H]1CC[C@H](n2cc(C(N)=O)c(Nc3ccc(C(F)(F)F)cc3)n2)[C@@H](C#N)C1 (single isomer, unassigned) [Example 30-2]

Reply:
7.49
7.70
6.87

---

Would you mind telling me the reported IC50 of each entry?
- target.under.test: JAK1 (recombinant purified GST-tagged catalytic domain) (Homo sapiens (Human), UniProt P23458);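 also: biochemical assay with HTRF read-out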
- Sequence (P23458 875-1153): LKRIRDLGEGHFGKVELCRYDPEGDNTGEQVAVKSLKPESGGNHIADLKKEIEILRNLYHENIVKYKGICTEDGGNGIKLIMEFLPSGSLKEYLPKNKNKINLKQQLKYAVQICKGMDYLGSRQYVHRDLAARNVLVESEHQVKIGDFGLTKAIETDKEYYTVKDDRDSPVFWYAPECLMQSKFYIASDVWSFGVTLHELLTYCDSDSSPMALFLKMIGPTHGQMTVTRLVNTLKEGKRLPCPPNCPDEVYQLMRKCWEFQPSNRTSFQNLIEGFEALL
- experiment.description: biochemical
One number for each entry, in nM.

1) COC(C)(C)c1ccc(Nc2nn([C@H]3CC[C@@H](O)C[C@@H]3C#N)cc2C(N)=O)cc1 (single isomer, unassigned) : 0.45
2) N#C[C@H]1C[C@H](O)CC[C@@H]1n1cc(C(N)=O)c(Nc2ccc(Cl)c(F)c2)n1 (single isomer, unassigned) : 1

Query: // query IC50 value for entry N#C[C@H]1CCCC[C@@H]1n1cc(C(N)=O)c(Nc2ccc(S(=O)(=O)NCc3ccncc3)cc2)n1 (single isomer, unassigned)
Reply: 0.25
